Collected inhibition values appear next to each entry.
# Experimental target: M-phase inducer phosphatase 2 (Homo sapiens) (UniProt P30305)
# Sequence (P30305 whole entry, looked up, the tested form may be a part): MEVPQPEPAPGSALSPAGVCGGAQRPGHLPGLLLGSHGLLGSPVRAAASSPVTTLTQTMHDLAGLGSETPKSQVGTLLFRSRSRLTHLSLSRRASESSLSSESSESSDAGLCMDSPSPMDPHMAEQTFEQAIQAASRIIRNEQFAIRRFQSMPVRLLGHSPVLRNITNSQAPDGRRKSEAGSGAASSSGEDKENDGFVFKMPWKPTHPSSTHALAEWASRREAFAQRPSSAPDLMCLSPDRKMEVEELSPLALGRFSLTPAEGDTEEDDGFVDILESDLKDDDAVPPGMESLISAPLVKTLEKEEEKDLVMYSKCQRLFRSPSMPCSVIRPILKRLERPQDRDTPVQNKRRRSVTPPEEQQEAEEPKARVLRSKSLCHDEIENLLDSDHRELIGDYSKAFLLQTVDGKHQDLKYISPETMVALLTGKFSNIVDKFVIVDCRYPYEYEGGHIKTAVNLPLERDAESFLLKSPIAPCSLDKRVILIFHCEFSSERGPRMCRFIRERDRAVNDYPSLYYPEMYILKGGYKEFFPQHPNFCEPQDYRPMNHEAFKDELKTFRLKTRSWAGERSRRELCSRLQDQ
# Measurement protocol: inhibitors of Cdc25B phosphatase catalytic domain, primary screen, biochemical, OMFP fluorescence (AID 368)
# Study conditions: recombinant Cdc25B, OMFP fluorescence Ex485/Em525; stronger effect = higher value;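 compounds tested at 10 µM final in the well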
The campaign covered roughly 65,000 compounds. About 85 (0.1%) were called active. The full list was thinned out, with actives kept by preference.

>  <Molecule>
COc1ccc(-n2nc3c(c2NC(=O)Cc2cccc(C)c2)CS(=O)C3)cc1 (configuration not stated)

>  <Unit of measure>
%

>  <inhibition>
-6.02

$$$$
>  <Molecule>
COC(=O)c1ccc(NC(=O)CN(c2ccc(C)cc2)S(=O)(=O)c2c(C)n[nH]c2C)cc1

>  <Unit of measure>
%

>  <inhibition>
5.5

$$$$
>  <Molecule>
c1nnc2c3c4c(sc3ncn12)CCC4

>  <Unit of measure>
%

>  <inhibition>
0.998

$$$$
>  <Molecule>
CCCOc1ccc(C2C(C(=O)c3ccc(C)o3)=C(O)C(=O)N2CCCn2ccnc2)cc1 (configuration not stated)

>  <Unit of measure>
%

>  <inhibition>
-1.79

$$$$
>  <Molecule>
COc1ccc(C(=O)N2CCC(C(=O)Nc3cccc(C)c3)CC2)cc1OC

>  <Unit of measure>
%

>  <inhibition>
-5.03

$$$$
>  <Molecule>
CCOC(=O)N1CCN(CC(=O)n2c(C)c(C)c3ccccc32)CC1

>  <Unit of measure>
%

>  <inhibition>
-1.72

$$$$
>  <Molecule>
CCOC(=O)C1CCCN(C(=O)C2CCN(c3nnc(-n4cccc4)s3)CC2)C1 (configuration not stated)

>  <Unit of measure>
%

>  <inhibition>
6.02

$$$$
>  <Molecule>
COc1ccccc1NC(=O)CSc1nnc(Cn2nnc(-c3ccccc3)n2)n1-c1ccccc1

>  <Unit of measure>
%

>  <inhibition>
-10.9

$$$$
>  <Molecule>
CCOC(=O)N1CCN(CC(=O)c2c(C)[nH]c3ccccc23)CC1

>  <Unit of measure>
%

>  <inhibition>
60

$$$$
>  <Molecule>
COC(=O)c1c(NC(=O)c2cccs2)sc2c1CCCC2

>  <Unit of measure>
%

>  <inhibition>
-11.6

$$$$
>  <Molecule>
O=C(Nc1nc2cc3c(cc2s1)OCCO3)c1cccc(S(=O)(=O)N2CCOCC2)c1

>  <Unit of measure>
%

>  <inhibition>
-3.84

$$$$
>  <Molecule>
C/C(=C(\C#N)C(=O)NCCCN1CCOCC1)N(C)C

>  <Unit of measure>
%

>  <inhibition>
-7.37

$$$$
>  <Molecule>
Cc1cccc(OCc2nnc(SCc3nc4cc(C(F)(F)F)ccc4c(=O)[nH]3)o2)c1

>  <Unit of measure>
%

>  <inhibition>
4.99

$$$$
>  <Molecule>
COc1ccccc1Nc1ncnc2c1oc1ccccc12

>  <Unit of measure>
%

>  <inhibition>
14.9

$$$$
>  <Molecule>
c1ccc(CSc2nnc(-c3ccco3)c(-c3ccco3)n2)cc1

>  <Unit of measure>
%

>  <inhibition>
50.3

$$$$
>  <Molecule>
Clc1ccccc1CSc1nnc(-c2ccco2)c(-c2ccco2)n1

>  <Unit of measure>
%

>  <inhibition>
-25.9

$$$$
>  <Molecule>
Cc1ccc2c(C(=O)CN3CCCC3)c(C)[nH]c2c1

>  <Unit of measure>
%

>  <inhibition>
-0.2

$$$$
>  <Molecule>
CC(C)OC(=O)c1sc2nc3c(cc2c1N)C(=O)CCC3

>  <Unit of measure>
%

>  <inhibition>
15.7

$$$$
>  <Molecule>
CCOc1ccc(CCNC(=O)C(CC)n2nc(C)n3c(cc4sccc43)c2=O)cc1OCC (configuration not stated)

>  <Unit of measure>
%

>  <inhibition>
-12.3

$$$$
>  <Molecule>
Cc1noc(/C=C/N(C)C)c1S(=O)(=O)N1CCCC(C(=O)NCc2ccco2)C1 (configuration not stated)

>  <Unit of measure>
%

>  <inhibition>
-8.56

$$$$
>  <Molecule>
Cc1csc(NC(=O)NC2(C(F)(F)F)Oc3ccccc3O2)n1

>  <Unit of measure>
%

>  <inhibition>
-7.31

$$$$
>  <Molecule>
COc1ccc(-c2nc3n(c2Br)CCC3)cc1

>  <Unit of measure>
%

>  <inhibition>
2.84

$$$$
